Catalogue of combination Emax readings, one per entry.
# Test system: COR-L311 (Small Cell Lung Carcinoma)
# assay.name: combination Emax (second highest fraction inhibited in the dose matrix, 72 h); higher = more inhibition; extreme values may be limits of the assay

In the examples that follow, each entry is paired with its recorded combination Emax.
{"compound": "C=CCn1c(=O)c2cnc(Nc3ccc(N4CCN(C)CC4)cc3)nc2n1-c1cccc(C(C)(C)O)n1 [AZD1775] + C[C@@H]1COCCN1C2=NC(=NC(=C2)C3(CC3)[S@](=N)(=O)C)C4=C5C=CNC5=NC=C4 [AZD6738] (first compound max 1 µM, partner max 10 µM)", "combination Emax": 0.801}
{"compound": "Cn1cnc2c(F)c(Nc3ccc(Br)cc3Cl)c(C(=O)NOCCO)cc21 [Selumetinib] + C=CCn1c(=O)c2cnc(Nc3ccc(N4CCN(C)CC4)cc3)nc2n1-c1cccc(C(C)(C)O)n1 [AZD1775] (first compound max 10 µM, partner max 1 µM)", "combination Emax": 0.504}
{"compound": "C[C@@H](c1ccc2nccn2c1)n1nnc2ncc(-c3cnn(C)c3)nc21 [Savolitinib] + CN(CC[C@H](CSC1=CC=CC=C1)NC2=C(C=C(C=C2)S(=O)(=O)NC(=O)C3=CC=C(C=C3)N4CCC(CC4)[C@H](C5=CC=CC=C5C6=CC=C(C=C6)Cl)O)S(=O)(=O)C(F)(F)F)CCO [AZD4320] (first compound max 1 µM, 7x7, partner max 1 µM)", "combination Emax": 1}
{"compound": "C=CCn1c(=O)c2cnc(Nc3ccc(N4CCN(C)CC4)cc3)nc2n1-c1cccc(C(C)(C)O)n1 [AZD1775] + O=C(c1cc(Cc2n[nH]c(=O)c3ccccc23)ccc1F)N1CCN(C(=O)C2CC2)CC1 [Olaparib] (first compound max 1 µM, partner max 10 µM)", "combination Emax": 0.587}
{"compound": "Cc1c2c(nn1C)CSCc1cc(n(C)n1)CSc1cc(c3ccccc3c1)OCCCc1c(C(=O)O)n(C)c3c-2c(Cl)ccc13 [AZD5991] + Cn1cnc2c(F)c(Nc3ccc(Br)cc3Cl)c(C(=O)NOCCO)cc21 [Selumetinib] (first compound max 1 µM, 7x7, partner max 3 µM)", "combination Emax": 0.247}

Any idea what combination Emax came out for CN(C)CCCOc1ccc(-c2ccc3ncc4c(c3c2)n(C2CCOCC2)c(=O)n4C)cn1 [AZD0156] + CCN(CCO)CCCOc1ccc2c(Nc3cc(CC(=O)Nc4cccc(F)c4)[nH]n3)ncnc2c1 [AZD2811] (first compound max 1 µM, 7x7, partner max 1 µM) on COR-L311 (Small Cell Lung Carcinoma)?
0.815

Kindly state the measured combination Emax obtained for COc1nnc2ccc(N3CCC(c4ccc(OCCN5CCN(C)C(=O)[C@H]5C)cc4)CC3)nn12 [AZD5153] + CC1(C)CCC(CN2CCN(c3ccc(C(=O)NS(=O)(=O)c4ccc(NCC5CCOCC5)c([N+](=O)[O-])c4)c(Oc4cnc5[nH]ccc5c4)c3)CC2)=C(c2ccc(Cl)cc2)C1 [Venetoclax] (first compound max 1 µM, 7x7, partner max 1 µM) with COR-L311 (Small Cell Lung Carcinoma).
0.934

* * *

# System: PA-1 (Ovarian Carcinoma);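 note: after 72 h of two-drug dosing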
# assay.name: Bliss excess, mean over the matrix (fraction); higher = more synergy
assay.metric: Bliss excess

{"compound": "Cc1nc(Nc2ncc(C(=O)Nc3c(C)cccc3Cl)s2)cc(N2CCN(CCO)CC2)n1 [Dasatinib] + CC(=O)Nc1cccc(-n2c(=O)n(C3CC3)c(=O)c3c(Nc4ccc(I)cc4F)n(C)c(=O)c(C)c32)c1 [Trametinib] (first compound max 2 µM, 7x7, partner max 1 µM)", "Bliss excess": 0.013}
{"compound": "Cc1c2c(nn1C)CSCc1cc(n(C)n1)CSc1cc(c3ccccc3c1)OCCCc1c(C(=O)O)n(C)c3c-2c(Cl)ccc13 [AZD5991] + Cc1cc2ncnn2cc1Nc1ncc2c(n1)n(C1CCOCC1)c(=O)n2C [AZD7648] (first compound max 1 µM, 7x7, partner max 10 µM)", "Bliss excess": -0.0774}

Bliss excess for CC1(C)CCC(CN2CCN(c3ccc(C(=O)NS(=O)(=O)c4ccc(NCC5CCOCC5)c([N+](=O)[O-])c4)c(Oc4cnc5[nH]ccc5c4)c3)CC2)=C(c2ccc(Cl)cc2)C1 [Venetoclax] + Cc1cc2ncnn2cc1Nc1ncc2c(n1)n(C1CCOCC1)c(=O)n2C [AZD7648] (first compound max 1 µM, 7x7, partner max 10 µM) ?
-0.0014

Where do the numbers come from? From the supplement of paper PMC11061612.
